Test: NCI Yeast Anticancer Drug Screen. Data for the cln2 rad14 strain (AID 165);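 note: 0% = growth equal to vehicle treated cultures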
Details: S. cerevisiae cln2 rad14 strain, at 50.0 µM
Compounds without any hit were thinned out: in the full panel of roughly 79,000, 15% have a hit. Active and inactive are the calls of the source. Cut-off read from the data, not from the text of the source: active = growth inhibition above about 70%; inactive = the rest.
Response enum: 1 (yes) = active, 0 (no) = inactive

Check out these entries, answers already filled in.
> print(dat)
                                   molecule  class.label
1  COc1ccc(-c2c(COC(C)=O)c(COC(C)=O)c3n2CCC3)cc1      1 (yes)
2                     CCCCCCCCCCCCCCSC(=N)N       0 (no)
3  CNC(=O)OCCC(OC(=O)NC)C1CCC2C3CC=C4CC(OC(=O)NC)CCC4(C)C3CCC12C (stereo unspecified)       0 (no)

Task: // outcome(item) with item = `c1nc(N2CCOCC2)c2[nH]cnc2n1`
Output: 0 (no)

Task: Hi team, can someone confirm the assay call for `CCOC(=O)/C(=C\c1ccc(Cl)cc1)C(C)=O` ?
Output: 1 (yes)

Task: In this assay, the call recorded for `Cc1[nH]c2ccccc2c1/C=C1/CCCCCCC1=O` was what?
Output: 1 (yes)

Task: Per the assay record, what outcome was assigned to `O=C(CCCl)Nc1cc2ccccc2oc1=O` ?
Output: 0 (no)

Task: Hey, what did the test say about `ON=C1Cc2ccccc2-c2ccccc2C1` ?
Output: 0 (no)

Task: // return assay outcome for `Fc1ccc(NC(=S)SCc2ccc(Cl)c(Cl)c2)cc1`
Output: 1 (yes)

Task: What did the test return for `C[C@]12CC[C@@H]3c4cc(OCC(F)(F)F)c(O)cc4CC[C@H]3[C@@H]1CC[C@@H]2O` ?
Output: 1 (yes)

Task: Short answer needed: outcome of this test for `CN(C)CCC(=O)[C@@]1(O)CC[C@H]2[C@@H]3CC=C4C[C@@H](O)CC[C@]4(C)[C@H]3CC[C@@]21C` ?
Output: 0 (no)
